System: A549 Bleomycin-Induced Senescent Cells
Test: Crystal violet cell viability / IC50 assay in bleomycin-induced senescent A549 cells
Assay type: cell-based, human
Settings: Homo sapiens, A549; senescent cells, 24-hour
property_name: pIC50
Remember, pIC50 is on a log scale: it is -log10 of the molar concentration.

Write pIC50 of C#CC(=O)NCCNc1nc(C)nc(C)c1Br [Compound 96558] ; system used: A549 Bleomycin-Induced Senescent Cells 5.43

====

Test system: U87MG glioma cell line, proliferating cells
Experiment: Crystal violet cell viability / IC50 assay in proliferating U87MG cells
Type: cell-based
Settings: Homo sapiens, U-87 MG, read-out: quantity required to eliminate at least 50% of proliferative counterparts
property_name: IC50 (µM)
Your answer is read as µM, so omit the unit and give the number.

Supply IC50 value. Item: C#CC(=O)NCCNc1nc(C)nc(C)c1Br [Compound 96558] 29.8

meta.source: patent EP4566610A1
